Assay Name: Activity of beta-lactamase FUS1 assessed as compound hydrolysis by spectrophotometry relative to benzyl-penicillin
Parameters: scale not given: the % may be the effect or the level left

{"columns": ["Molecule", "Activity, %"],
 "data": [
  ["CO/N=C(\\C(=O)N[C@@H]1C(=O)N2C(C(=O)O)=C(COC(N)=O)CS[C@H]12)c1ccco1", 0.005],
  ["CC(=O)OCC1=C(C(=O)O)N2C(=O)[C@@H](NC(=O)Cc3cccs3)[C@H]2SC1", 0.1],
  ["CC1(C)S[C@@H]2[C@H](NC(=O)[C@H](N)c3ccccc3)C(=O)N2[C@H]1C(=O)O", 0.7],
  ["Cc1onc(-c2ccccc2)c1C(=O)N[C@@H]1C(=O)N2[C@@H]1SC(C)(C)[C@@H]2C(=O)O", 25]
]}
